- assayedTarget: UniProt Q13946
- Sequence (Q13946 whole entry): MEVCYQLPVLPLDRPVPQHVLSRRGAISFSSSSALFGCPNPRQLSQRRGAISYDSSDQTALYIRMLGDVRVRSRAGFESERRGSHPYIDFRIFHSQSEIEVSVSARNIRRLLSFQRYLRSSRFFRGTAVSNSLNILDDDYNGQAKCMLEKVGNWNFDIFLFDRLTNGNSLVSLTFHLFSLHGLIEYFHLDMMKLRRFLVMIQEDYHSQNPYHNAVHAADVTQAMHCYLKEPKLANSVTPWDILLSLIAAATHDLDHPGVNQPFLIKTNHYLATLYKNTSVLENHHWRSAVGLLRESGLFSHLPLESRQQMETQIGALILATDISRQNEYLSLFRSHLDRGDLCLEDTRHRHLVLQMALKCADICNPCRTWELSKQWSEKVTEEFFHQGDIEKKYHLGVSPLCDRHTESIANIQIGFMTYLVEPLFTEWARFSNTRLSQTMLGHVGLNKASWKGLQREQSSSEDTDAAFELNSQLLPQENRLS
- assayMethodText: Inhibition of human recombinant PDE7A1 expressed in baculovirus infected insect Sf21 cells after 30 mins by scintillation proximity assay
pIC50: −log10 of the molar value.
# label = 1 if pIC50 >= 7 else -1

[
  {
    "structureSmilesString": "O=C(Nc1ccc(C(=O)N2CCOCC2)cc1)c1cn(Cc2c(F)cccc2F)c2ccc(=O)[nH]c2c1=O",
    "cat": -1
  },
  {
    "structureSmilesString": "COc1cc(NC(=O)c2cn(Cc3c(F)cccc3F)c3ccc(=O)[nH]c3c2=O)cc(OC)c1",
    "cat": -1
  },
  {
    "structureSmilesString": "O=C(Nc1ccc(N2CCOCC2)cc1)c1cn(Cc2ccc(OC(F)(F)F)cc2)c2ccc(=O)[nH]c2c1=O",
    "cat": -1
  },
  {
    "structureSmilesString": "COc1cc(NC(=O)c2cn(Cc3ccc(F)cc3)c3ccc(=O)[nH]c3c2=O)cc(OC)c1OC",
    "cat": -1
  },
  {
    "structureSmilesString": "O=C(Nc1ccc(N2CCOCC2)cc1)c1cn(Cc2c(Cl)cccc2Cl)c2ccc(=O)[nH]c2c1=O",
    "cat": -1
  },
  {
    "structureSmilesString": "O=C(Nc1ccc(S(=O)(=O)Nc2nccs2)cc1)c1cn(Cc2c(F)cccc2Cl)c2ccc(=O)[nH]c2c1=O",
    "cat": 1
  }
]

Origin of values: ChEMBL document CHEMBL1909601
